Test system: TRPC4 beta (transient receptor potential cation channel C4), mouse
Assay: TRPC4 cation channel opening, retest – cell-based, Fluo4 calcium, HEK293 TRPC4beta/mu-opioid, duplicates, 10 µM, confirmation (AID 2426)
Conditions: Fluo4 calcium fluorescence, at 10 µM
Calls of active or inactive are those of the source.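 How the source made its calls: active means fluorescence ratio normalized to control raised more than 50% in primary screen plus both repeat runs; inactive means the rest.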
Labels: active, inactive

{"compound": "COc1cc(CNCCCN2CCOCC2)cc(Br)c1OCc1ccc(Cl)cc1", "group": "inactive"}
{"compound": "Cn1c(=O)c2c(nc(CN3CCc4ccccc4C3)n2Cc2cccc(Cl)c2)n(C)c1=O", "group": "inactive"}
{"compound": "CCC1CCCCN1S(=O)(=O)c1ccc(C(=O)N(CCCN(C)C)c2nc3cc4c(cc3s2)OCO4)cc1 (stereo not given)", "group": "active"}
{"compound": "Cc1ccc(-n2cccn2)c(CN2CCCC(C(=O)c3ccc4c(c3)OCO4)C2)c1 (stereo not given)", "group": "inactive"}
{"compound": "Cc1ccc(CSc2nnc(-c3cccc(S(=O)(=O)N4CCOCC4)c3)n2C2CCCC2)cc1", "group": "inactive"}
